// data source = paper PMC11665613

Target: NCP2, nucleosome core particle with 3xFLAG-H3K36NleCTMS (X. laevis | , cysteine at position 36 alkylated with vinyl cyclic sulfonium 5 (NleCTMS))
Assay: MST
pKd: −log10 of the molar value.

# BINDER, pKd
data = [
    ("PWWP domain of NSD2 (domain or fragment) VGDLVWSKVSGYPWWPCMVSADPLLHSYTKLKGQKKSARQYHVQFFGDAPERAWIFEKSLVAFEG", 5.80),
]
